# measurementTarget: GppNp-KRAS G12D (Homo sapiens, UniProt P01116, G12D)
# Sequence (P01116 1-169 isoform P01116-2 G12D): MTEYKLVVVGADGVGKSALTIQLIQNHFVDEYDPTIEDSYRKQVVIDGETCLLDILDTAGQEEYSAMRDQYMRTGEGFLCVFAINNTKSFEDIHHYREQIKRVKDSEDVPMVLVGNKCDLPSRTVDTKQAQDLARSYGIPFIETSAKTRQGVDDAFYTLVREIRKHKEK
# assay: biochemical
readoutLabel: IC50

Fill in: IC50 of C#Cc1c(F)ccc2cc(N)cc(-c3nc4c5c(nc(OC[C@@]67CCCN6C[C@H](F)C7)nc5c3F)N3CCCOCC3N4C(C)=O)c12 (stereo partly drawn) [Compound 78] is ___
> 1 µM

Next compound up: C#Cc1c(F)ccc2cc(N)cc(-c3nc4c5c(nc(OCC6(CN7CCOCC7)CCC6)nc5c3F)N3CCCOCC3N4C)c12 (stereo not drawn) [Compound 140]
> 1 µM

Quick one: C#Cc1c(F)ccc2cc(N)cc(-c3nc4c5c(nc(OC[C@@]67CCCN6C[C@H](F)C7)nc5c3F)N3CCCOCC3N4CCC(F)(F)F)c12 (stereo partly drawn) [Compound 104]
> 1 µM
